Where do the numbers come from? From patent US10457685B2.

Each entry below lists one item and its recorded Ki value.
- study.system: human CB2 receptor (CNR2) (Homo sapiens (Human), UniProt P34972)
- Sequence (P34972 whole entry): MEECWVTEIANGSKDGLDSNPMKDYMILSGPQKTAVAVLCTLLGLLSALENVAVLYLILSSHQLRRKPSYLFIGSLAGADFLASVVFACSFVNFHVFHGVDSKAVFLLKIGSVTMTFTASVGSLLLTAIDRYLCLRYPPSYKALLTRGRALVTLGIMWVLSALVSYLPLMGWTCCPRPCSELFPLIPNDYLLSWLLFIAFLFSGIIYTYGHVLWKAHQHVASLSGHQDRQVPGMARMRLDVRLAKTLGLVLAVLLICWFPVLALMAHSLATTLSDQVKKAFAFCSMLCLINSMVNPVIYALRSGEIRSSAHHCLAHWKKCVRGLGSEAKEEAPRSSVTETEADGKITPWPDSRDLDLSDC
measurement.kind: Ki (nM)

> print(dat)
                                   compound  measurement.kind  value.reported
1  CC(C)(C)c1nc(N2CCC(N=[N+]=[N-])C2)c2nnn(Cc3ccccc3Cl)c2n1 (stereo not drawn) [Example 17]                Ki             210
2  OCCSSCCc1ccccc1Cn1nnc2c(N3CCC(F)(F)C3)nc(C(F)(F)c3ccccc3)nc21 [Example 28]                Ki             138
3  [N-]=[N+]=NC1CCN(c2nc(C(F)(F)c3ccccc3)nc3c2nnn3Cc2ccccc2Cl)C1 (stereo not drawn) [Example 21]                Ki             729
